ASSAY_SYSTEM: estrogen receptor alpha (ESR1) in MCF7 breast cancer cells (Homo sapiens)
Construct: endogenous in cells; host or cells: MCF7 breast cancer cells
Sequence (P03372 whole entry): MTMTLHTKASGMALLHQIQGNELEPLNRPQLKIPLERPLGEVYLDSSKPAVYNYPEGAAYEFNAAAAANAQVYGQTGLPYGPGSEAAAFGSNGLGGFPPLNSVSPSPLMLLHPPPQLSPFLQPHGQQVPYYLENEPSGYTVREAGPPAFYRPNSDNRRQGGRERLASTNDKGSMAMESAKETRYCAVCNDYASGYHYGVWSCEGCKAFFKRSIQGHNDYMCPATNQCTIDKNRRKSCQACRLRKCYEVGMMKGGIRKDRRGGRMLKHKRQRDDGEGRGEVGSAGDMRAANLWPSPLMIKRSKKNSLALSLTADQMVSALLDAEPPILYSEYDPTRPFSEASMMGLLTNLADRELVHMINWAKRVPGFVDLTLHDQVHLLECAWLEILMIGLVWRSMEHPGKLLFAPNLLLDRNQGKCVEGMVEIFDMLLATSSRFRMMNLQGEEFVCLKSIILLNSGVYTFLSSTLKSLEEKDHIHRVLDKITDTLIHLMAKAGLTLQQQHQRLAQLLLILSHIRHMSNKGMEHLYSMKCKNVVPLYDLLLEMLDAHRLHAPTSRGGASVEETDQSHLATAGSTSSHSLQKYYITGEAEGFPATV
MEASUREMENT_DESCRIPTION: Breast Cancer Cell ERa High Content Fluorescence Imaging Assay (F10)
Assay type: cell-based
SETTINGS: 4 hours, plateau of the maximal effect, DMSO and 5 nM Fulvestrant define 0% and 100% changes in ESR1
Threshold -90%. ER-alpha MCF7 HCS Sinf (%) below it: class 1. ER-alpha MCF7 HCS Sinf (%) at it or above: class 0.

Incoming: Below -90% on ER-alpha MCF7 HCS Sinf (%)? Entry CC1=C(c2cccc(O)c2)C(c2ccc(OCCN3CC(CF)C3)cc2)Oc2cc(Cl)c(O)cc21 (centres unmarked)
Outgoing: class 1

Incoming: Below -90% on ER-alpha MCF7 HCS Sinf (%)? Entry CC1=C(c2cccc(F)c2F)C(c2ccc(OCCN3CC(CF)C3)cc2)Oc2ccc(O)cc21 (centres unmarked)
Outgoing: class 1

Incoming: Below -90% on ER-alpha MCF7 HCS Sinf (%)? Entry `CC1=C(c2cc(F)cc(F)c2)[C@@H](c2ccc(OCCN3CC(CF)C3)cc2)Oc2ccc(O)cc21`
Outgoing: class 0

Incoming: Below -90% on ER-alpha MCF7 HCS Sinf (%)? Entry CC1=C(c2ccc(F)cc2Cl)C(c2ccc(OCCN3CC(CF)C3)cc2)Oc2ccc(O)cc21 (centres unmarked)
Outgoing: class 1

Incoming: Below -90% on ER-alpha MCF7 HCS Sinf (%)? Entry CC1=C(c2ccc(CO)cc2)C(c2ccc(OCCN3CC(CF)C3)cc2)Oc2ccc(O)cc21 (centres unmarked)
Outgoing: class 1

Incoming: Below -90% on ER-alpha MCF7 HCS Sinf (%)? Entry `CC1=C(c2cc(F)ccc2F)[C@@H](c2ccc(OCCN3CC(CF)C3)cc2)Oc2ccc(O)cc21`
Outgoing: class 1

Values from patent US20160175284A1
